Assay: Mouse hepatocyte stability
Type: in vitro ADME
Settings: mouse hepatocytes, clearance
MEASURED ATTRIBUTE: Cl (ml/minute/g liver)

{"COMPOUND": "CC(C)CN(C(=O)c1ccccc1F)c1cccc(N(C)Cc2cnc[nH]2)c1 [ESC1002033]", "QUANTITATIVE RESULT": 6.2}
{"COMPOUND": "Cc1ncc(CN(C)c2cccc(N(CC(C)C)C(=O)c3ccccc3F)c2)[nH]1 [ESC1002204]", "QUANTITATIVE RESULT": 54}
{"COMPOUND": "O=C(c1sccc1Cl)N1CCC[C@H]1c1ccccc1-c1cc(O)ccc1F (single isomer, unassigned) [ESC1002842]", "QUANTITATIVE RESULT": 83.1}
